Test system: MDA-MB-231 breast
Measurement Description: NCI-60 one-dose screen, 48 h
Reported Conditions: 10 µM unless noted
About 83,000 compounds went through this panel and 20% of them were active in at least one assay; those are over-represented in the sample as a whole. Calls of active or inactive are those of the source. Rule for the calls: active = growth percent below 10; inactive = the rest.
Outcome codes: yes (1) (active), no (0) (inactive)

{"Compound": "NC(=O)c1c(NC(=O)c2ccc(OCC3CCCO3)cc2)sc2c1CCCC2 (stereo unspecified)", "Group Label": "no (0)"}
{"Compound": "COc1ccc(OC)c(NC(=O)c2cc(S(=O)(=O)N3CCc4ccccc43)ccc2OC)c1", "Group Label": "no (0)"}
{"Compound": "CNC(=O)c1cc(Oc2ccc3c(c2)sc2nc(-c4ccc(Cl)cc4)cn23)ccn1", "Group Label": "no (0)"}
{"Compound": "Cc1cc(N/C=c2\\sc3ncnn3c2=O)no1", "Group Label": "no (0)"}
{"Compound": "O=C1CCC/C=C\\C[C@H]2C=CC(=O)/C2=C/C[C@H](C/C=C\\CC(F)(F)F)O1", "Group Label": "no (0)"}
{"Compound": "COc1ccc(-c2nc(-c3ccccc3)c(-c3ccccc3)n2C2CC2)cc1OC1CCCCC1", "Group Label": "no (0)"}
{"Compound": "COc1ccc(/C=C/C(=O)c2ccc(NC(=O)CN3CCN(c4cc5c(cc4F)c(=O)c(C(=O)O)cn5C4CC4)CC3)cc2)cc1", "Group Label": "no (0)"}
{"Compound": "CCn1cc(C2NC(=O)c3cc(F)ccc3N2)c2cccc(Cl)c21 (stereo unspecified)", "Group Label": "no (0)"}
{"Compound": "Clc1cccc(Cl)c1Cn1c(-c2cncs2)nc2ccccc21", "Group Label": "no (0)"}
{"Compound": "COc1ccc(Cn2c(SC)nc(=O)n(Cc3ccc(Cl)cc3)c2=O)cc1", "Group Label": "no (0)"}
{"Compound": "CC(Br)C(O)c1cc2c(cc1Br)OCO2 (stereo unspecified)", "Group Label": "no (0)"}
{"Compound": "Nc1c(C(=O)Nc2cccc(C(F)(F)F)c2)sc2nc3c(cc12)CCCCC3", "Group Label": "yes (1)"}
{"Compound": "CCOC(=O)c1cc(/C(=N\\O)c2cc(OC)c(OC)c(OC)c2)n2cc(C)cc(C)c12", "Group Label": "no (0)"}
{"Compound": "O=c1cc(C2NCCc3c2[nH]c2ccccc32)c2c(ccc3ccccc32)o1 (stereo unspecified)", "Group Label": "no (0)"}
{"Compound": "CC(C)(C)OC(=O)N1C/C(=C\\c2cccs2)C(=O)/C(=C/c2cccs2)C1", "Group Label": "no (0)"}
{"Compound": "CC(C)(C)c1cn2cccc(C(=O)N3CCN(CC(=O)Nc4ccc(Cl)cc4C(=O)c4ccccc4Cl)CC3)c2n1", "Group Label": "no (0)"}
{"Compound": "O=C(CSc1nc(-c2ccc(Cl)cc2)cn1-c1ccc(Cl)cc1)c1ccc(Br)cc1", "Group Label": "no (0)"}
{"Compound": "CCCCCc1c(C)[nH]c(/C=c2\\[nH]/c(=C3/C=c4ccccc4=N3)cc2OC)c1C", "Group Label": "yes (1)"}
{"Compound": "O=C(O)Cc1ccc2c(c1)Cc1cccnc1O2", "Group Label": "no (0)"}
{"Compound": "CC(=O)c1cc(C(=O)c2ccc3c(c2)Sc2ccccc2N3)c2cc(C)ccn12", "Group Label": "yes (1)"}
{"Compound": "CC(=O)Nc1nc(C(=O)N2N=C(C)/C(=C/c3ccccc3)C2=O)cs1", "Group Label": "no (0)"}

----------
The following compounds are listed with their measured growth values.
Test system: SF-539 CNS
Measurement Description: NCI-60 one-dose screen, 48 h (100 = growth as untreated, 0 = no growth, -100 = all killed)
Reported Conditions: 10 µM unless noted
About 83,000 compounds went through this panel and 20% of them were active in at least one assay; those are over-represented in the sample as a whole.
Quantity Name: growth (%)

{"Compound": "CCNC(=O)CCCCC(=O)c1c(C)[nH]c(/C=C2\\N=C(c3ccc[nH]3)C=C2OC)c1C", "Readout Number": 54.8}
{"Compound": "O=C(O)c1ccc(-n2cc(CNc3ccc(C(F)(F)F)cc3)c(-c3ccccc3)n2)cc1", "Readout Number": 99.9}
{"Compound": "Clc1ccc2c(c1)NC1(CCSc3ccccc31)n1nccc1-2 (centres undefined)", "Readout Number": 92.4}
{"Compound": "C=C1C(=O)O[C@H]2[C@H]1CC/C(COC(=O)NCCc1cccc(OC)c1)=C\\CC[C@@]1(C)O[C@@H]21", "Readout Number": 38.9}
{"Compound": "COc1ccc2c(c1)C(=O)/C(=C/c1ccc(O)cc1)O2", "Readout Number": 80.2}
{"Compound": "CCCCCCC[C@@H](O)CC(=O)N[C@H](CCCCN)C(=O)N[C@H](Cc1c[nH]c2ccccc12)C(=O)NC(CCCCN)C(=O)N[C@H](CC(C)C)C(=O)N[C@H](Cc1ccccc1)C(=O)N[C@H](CCCCN)C(=O)N[C@H](CCCCN)C(=O)N[C@H](CC(C)C)C(=O)N1CCCC1C(=O)N[C@H](CCCCN)C(=O)N[C@H](Cc1ccccc1)C(=O)N[C@H](CC(C)C)C(=O)N[C@H](Cc1c[nH]cn1)C(=O)N[C@H](CC(C)C)C(=O)N[C@H](C)C(=O)N[C@H](CCCCN)C(=O)N[C@H](CCCCN)C(=O)N[C@H](Cc1ccccc1)C(=O)O (some centres undefined)", "Readout Number": -30.8}
{"Compound": "COc1cccc2nc(Nc3ccc(NC(=O)c4ccc5ncccc5c4)cc3)ccc12", "Readout Number": 48.1}
{"Compound": "O=C1c2ccccc2C(=O)c2c(N=Nc3sc(=O)[nH]c3S)cccc21", "Readout Number": 107}
{"Compound": "O=C(O)C(=Cc1c2ccccc2cc2ccccc12)C(=O)O", "Readout Number": 97.3}

----------
Tested on: K-562 leukemia
Measurement Description: NCI-60 one-dose screen, 48 h (100 = growth as untreated, 0 = no growth, -100 = all killed)
Reported Conditions: 10 µM unless noted
Compounds without any hit were thinned out: in the full panel of roughly 83,000, 20% have a hit.
Rule: growth below 20% gives Condition met, anything at or above gives Condition not met.

{"Compound": "CC[C@H](C)[C@@H]1NC(=O)[C@H]([C@@H](C)O)NC(=O)C(Cc2ccccc2)NC(=O)[C@@H]2CCCN2C(=O)C(C(C)C)NC(=O)C(Cc2ccccc2)NC(=O)CNC(=O)[C@@H]2CCCN2C1=O (stereo partly drawn)", "Group Label": "Condition not met"}
{"Compound": "CC1CCN(C(=O)CSc2nc3sc4c(c3c(=O)[nH]2)CCCC4)CC1", "Group Label": "Condition not met"}
{"Compound": "CC/C(=C(\\c1ccc(O)cc1)c1ccc(OCCN(C)CCN(C)C(=O)CCC(=O)c2c(C)[nH]c(/C=C3\\N=C(c4ccc[nH]4)C=C3OC)c2C)cc1)c1ccccc1", "Group Label": "Condition met"}
{"Compound": "COc1ccc(C(=O)c2cc(OC)c(OC)c(OC)c2)cc1/C=C/C(=O)c1ccc(O)cc1", "Group Label": "Condition met"}
{"Compound": "CCCCCCCCCCC/C=C\\C[C@H](O)C/C=C1/C(=O)C=C[C@@H]1C/C=C\\CCCC(=O)OC", "Group Label": "Condition met"}
{"Compound": "C[C@]12CC[C@@H]3c4cc(O)c(O)cc4CC[C@H]3[C@@H]1CC[C@@H]2O", "Group Label": "Condition met"}
{"Compound": "NS(=O)(=O)c1ccc(CN2C(=O)c3cccc4cccc(c34)C2=O)cc1", "Group Label": "Condition not met"}
{"Compound": "O=C(O)C(=Cc1c2ccccc2cc2ccccc12)C(=O)O", "Group Label": "Condition not met"}
{"Compound": "COc1cccc(/C=C/c2c(C(=O)O)cccc2[N+](=O)[O-])c1OC", "Group Label": "Condition not met"}
{"Compound": "COc1ccc(NC(=O)CSc2nc3ccc(Cl)cc3c(=O)n2-c2ccccc2C(F)(F)F)c(OC)c1OC", "Group Label": "Condition not met"}
{"Compound": "O=C(Nc1cccc(Cl)c1)c1cc([N+](=O)[O-])ccc1O", "Group Label": "Condition not met"}
{"Compound": "COc1ccc(/C=C/C(=O)c2ccc(B(O)O)cc2)cc1O", "Group Label": "Condition not met"}
{"Compound": "CC[C@]1(O)C[C@@H]2CN(Cc3c([nH]c4ccccc34)[C@@](C(=O)OC)(c3cc4c(cc3OC)N(C)[C@H]3[C@@](O)(C(=O)OC)[C@H](OC(C)=O)[C@]5(CC)[C@@H]6C[C@@H]6CN6CC[C@]43[C@@H]65)C2)C1", "Group Label": "Condition met"}
{"Compound": "Cc1nc(Nc2cccnc2)sc1C(=O)/C=C/c1ccc(Cl)cc1", "Group Label": "Condition met"}
{"Compound": "CCC(c1ccc(OC)cc1)C(CC)c1ccc(OCC[N+](C)(C)C)cc1 (stereo not drawn)", "Group Label": "Condition not met"}
{"Compound": "CCNc1nc(N2CC(=O)Nc3cc(OC)ccc32)c2ccccc2n1", "Group Label": "Condition met"}
{"Compound": "CCCCC[C@@H]1Cc2cc(O)c(C(=O)O)c3c2[C@H](C[C@@]2(CCCO2)O3)O1", "Group Label": "Condition not met"}
{"Compound": "c1ccn2nnnc2c1", "Group Label": "Condition not met"}
